Provenance of the data: PubChem BioAssay (NCI)

Tested on: OVCAR-4 ovarian
Assay: NCI tumour cell line growth inhibition, 48 h
Assay metric: TGI

For orientation, consider the following solved cases.
{"Molecule": "CCCCCCCCCCCCCCCCCCOc1ccccc1CC(=O)NCC[N+]1(C)CCOCC1", "TGI": "23.3 µM"}
{"Molecule": "COC1N(C2CC(O)C(CO)O2)C(=O)NC(=O)C1(F)Br (centres undefined)", "TGI": "> 100 µM"}
{"Molecule": "CC(C)NC(=O)OCc1c(COC(=O)NC(C)C)n(C)c2c1ccc1sccc12", "TGI": "36.5 µM"}

Now for a further molecule.
Per the reported OVCAR-4 ovarian data, COC(=O)OC1C(O[C@H]2C[C@H]3[C@@H]4CC=C5C[C@@H](O)CC[C@]5(C)[C@H]4CC[C@]3(C)[C@H]2[C@H](C)C(=O)CCC(C)C)OCC(O)C1OC1OCC(O)C(O)C1OC(=O)c1ccc(OC)cc1 (some centres undefined) has TGI of > 27.5 µM

* * *

System: HOP-62 NSCLC
Test: NCI tumour cell line growth inhibition, 48 h
Assay metric: TGI

For orientation, consider the following solved cases.
{"Compound": "O=C(NC1C(=O)NNC1c1cccc([N+](=O)[O-])c1)c1ccccc1 (stereo not given)", "Target under test": "HOP-62 NSCLC", "Value reported": "> 100 µM"}
{"Compound": "Cc1ccc(O)cc1Nc1ccnc2ccc(S(C)(=O)=O)cc12", "Target under test": "HOP-62 NSCLC", "Value reported": "> 25 µM"}
{"Compound": "COC(=O)C1C(=O)O[C@@H](c2ccc3c(c2)OCO3)C1C(=O)OC (mixture of isomers)", "Target under test": "HOP-62 NSCLC", "Value reported": "> 100 µM"}

Parameter requested: TGI. Apply to each item below.
1. NCCN1CCCCCc2ccccc21
2. O=[N+]([O-])c1ccccc1C1SCc2nc3ccccc3n21 (stereo not given)

## Output
> 10 µM
> 100 µM

* * *

Test system: EKVX NSCLC
Experiment: NCI tumour cell line growth inhibition, 48 h
Assay metric: TGI (µM)
Answers are plain numbers, in µM.

For orientation, consider the following solved cases.
{"Compound": "CC(=O)ON1CCCC(P(=O)(OCOC(=O)C(C)(C)C)OCOC(=O)C(C)(C)C)C1=O (stereo not given)", "TGI [µM]": 11.1}
{"Compound": "O=C(ON=C1c2ccccc2C(Br)C(Br)c2ccccc21)c1ccccc1 (stereo not given)", "TGI [µM]": 46.6}
{"Compound": "Cc1ccc2c(c1)CN1c3ccc(C)cc3CN2C1c1ccccc1O", "TGI [µM]": 54.9}
{"Compound": "CCCCCCN(CCCCCC)C(=S)N/N=C(\\C)c1ccccn1", "TGI [µM]": 3.01}

Now for a further compound.
The reported value for O=C(COc1ccc(OCC(=O)N/N=C/c2ccc(-c3ccc(Cl)cc3Cl)o2)c(Cl)c1)N/N=C/c1ccc(-c2ccc(Cl)cc2Cl)o1 in terms of TGI is 89.5

* * *

Kindly state TGI for each of the entries shown.
System: M14 melanoma
Experiment: NCI tumour cell line growth inhibition, 48 h

For orientation, consider the following solved cases.
{"Molecule": "COC1OC(C)C(NC(=O)OCC(Cl)(Cl)Cl)C2OC(C)(C)OC12 (stereo not drawn)", "Target under test": "M14 melanoma", "Value reported": "> 100 µM"}
{"Molecule": "C[n+]1cc2cc(O)c(O)cc2c2ccc3cc(O)c(O)cc3c21", "Target under test": "M14 melanoma", "Value reported": "> 100 µM"}

Per the reported M14 melanoma data, O=C1NC(=N[C@@H](CO)c2ccccc2)S/C1=C\c1ccc2ncccc2c1 has TGI of > 25 µM

* * *

Test system: UACC-62 melanoma
Assay: NCI tumour cell line growth inhibition, 48 h
Kindly state TGI for each of the entries shown.

{"Molecule": "CCc1cccc(C)c1NC(=O)CCc1nc(=S)[nH][nH]1", "Value reported": "> 100 µM"}
{"Molecule": "CC1(C)N=C(N)N=C(N)N1c1ccc(CCC(=O)Nc2ccc(S(=O)(=O)F)cc2)cc1", "Value reported": "> 100 µM"}
{"Molecule": "O=C(NC1C(=O)NNC1c1cccc([N+](=O)[O-])c1)c1ccccc1 (stereo unspecified)", "Value reported": "> 100 µM"}

Parameter requested: TGI. Apply to each item below.
1. O=C(c1ccco1)N(C(=O)N1CCCCC1)c1ccccc1
2. N#Cc1c(-c2ccc([N+](=O)[O-])cc2)cc(-c2ccc(Nc3ccnc4cc(Cl)ccc34)cc2)[nH]c1=O

## Output
["> 100 µM", "> 100 µM"]

* * *

Tested on: NCI-H23 lung
Assay: NCI tumour cell line growth inhibition, 48 h
Assay metric: TGI

{"Molecule": "O=c1oc2ccccc2c(O)c1Cc1ccc(Cc2c(O)c3ccccc3oc2=O)cc1", "Value reported": "> 100 µM"}
{"Molecule": "c1ccc(C2=NC3OC2c2ccccc23)cc1 (configuration not stated)", "Value reported": "> 10 µM"}
{"Molecule": "O=C(OCc1ccc2c(Br)cc(Br)c(O)c2n1)c1cc2ccccc2[nH]1", "Value reported": "3.14 µM"}
{"Molecule": "O=C(CCc1cc(O)cc(O)c1)NCCc1cc(OCc2ccccc2)cc(OCc2ccccc2)c1", "Value reported": "24.6 µM"}
{"Molecule": "CCc1c(O)cc(=O)oc1-c1ccc(OC)c(OC)c1", "Value reported": "> 100 µM"}

Parameter requested: TGI. Apply to each item below.
1. O=C(Nc1ccc(N=C=S)cc1Cl)c1cc(Br)cc(Br)c1O
2. CCOC(=O)C1C(c2ccc(Cl)cc2Cl)NC(c2ccc(C)cc2)C(C(=O)OC)S1(=O)=O (configuration not stated)
3. COC1OC(C)C(NC(=O)OCC(Cl)(Cl)Cl)C2OC(C)(C)OC12 (configuration not stated)
4. COc1ccc(C(=O)c2cc(OC)c(OC)c(OC)c2OC)cc1O
5. O=C(NC12CC3CCC1CC(C3)C2)[C@@H]1CCCN1C(=O)OCc1ccccc1 (some centres not stated)
6. CCCCCOc1ccc(/C=N/Nc2cc(C)nc3ccc(Cl)cc23)cc1
7. COC(=O)C1C(=O)O[C@@H](c2ccc3c(c2)OCO3)C1C(=O)OC (mixture of isomers)

## Output
1. 55.2 µM
2. > 100 µM
3. > 100 µM
4. > 100 µM
5. > 100 µM
6. 3.47 µM
7. > 100 µM

Parameter requested: TGI. Apply to each item below.
1. COc1cc2ccc3c4cc(OC)c(OC)cc4c[n+](C)c3c2cc1O
2. CSCC[C@@H](NC(=O)[C@H](CC(C)C)NC(=O)C(Cc1cnc[nH]1)NC(=O)CNC(=O)[C@@H](NC(=O)[C@H](C)NC(=O)[C@H](Cc1c[nH]c2ccccc12)NC(=O)[C@H](CCC(N)=O)NC(=O)[C@@H](N)CC(N)=O)C(C)C)C(N)=O (some centres not stated)
3. O=C1NC(=O)c2c1n(Cc1ccccc1)c(=O)n2Cc1ccccc1
4. COc1ccc2c(c1)C(=O)c1c-2c(Nc2ccccc2OC)nc2ccccc12
5. OCc1ccc2c(c1)CC1(C2)Cc2cc3c(cc2C1O)CCC3 (configuration not stated)
6. COc1ccc(OC)c(/C=C/c2nc(=S)n(-c3ccc(Cl)cc3)[nH]2)c1

## Output
1. > 100 µM
2. > 100 µM
3. > 100 µM
4. > 100 µM
5. 25.7 µM
6. > 100 µM

Parameter requested: TGI. Apply to each item below.
1. CN(C)c1nc(Oc2nc(N(C)C)nc(N(C)C)n2)nc(N(C)C)n1
2. OCc1cc2c(cn1)[nH]c1ccc(NCc3ccccc3)cc12

## Output
> 100 µM
> 100 µM

Parameter requested: TGI. Apply to each item below.
1. COc1ccc(C)cc1N1C(=O)C2ON(Cc3ccc(CC(N)=O)cc3)C(c3c4ccccc4c(Cl)c4ccccc34)C2C1=O (configuration not stated)
2. COc1cc2c(N3CCN(C(=O)Nc4ccc(OC(C)C)cc4)CC3)ncnc2cc1OCCCN1CCCCC1
3. O=C(c1ccco1)N(C(=O)N1CCCCC1)c1ccccc1
4. N#CC1c2ccccc2C=CN1C(=O)CCCl (configuration not stated)

## Output
1. 96.4 µM
2. 39.1 µM
3. > 100 µM
4. 40.9 µM

Parameter requested: TGI. Apply to each item below.
1. Cc1ccc2c(c1)CN1c3ccc(C)cc3CN2C1c1ccccc1O
2. c1ccc(-c2[nH]ncc2-c2ccnc(-c3ccc(OCCn4ccnc4)cc3)c2)nc1

## Output
["> 100 µM", "> 25 µM"]

Parameter requested: TGI. Apply to each item below.
1. O=C1C=CC2(O[C@H](c3ccccc3)[C@@H](c3ccccc3)O2)[C@H](Sc2ccccc2O)C1
2. COc1cc2oc(-c3ccc(O)cc3)cc(=O)c2c(O)c1C1OC(CO)C(O)C(O)C1O (configuration not stated)
3. COC(=O)c1ccccc1C1CN=NC12Cc1c(ccc(C)c1C)C2=O (configuration not stated)

## Output
2.39 µM
> 100 µM
> 100 µM

Parameter requested: TGI. Apply to each item below.
1. COC(=O)/C=C(/C=C1/C(C#N)=C(N)N(c2ccc(Cl)cc2)C1(C)/C(=C\C(=O)OC)C(=O)OC)C(=O)OC (configuration not stated)
2. CC1=NN(C(=O)Cc2ccccc2)C(=O)/C1=C\c1ccc(O)cc1
3. O=c1c2ccccc2sc2c(CO)ccc(NCCN3CCCCC3)c12

## Output
1: 40.5 µM; 2: > 100 µM; 3: 10.3 µM
